Where do these numbers come from? They come from ChEMBL document CHEMBL1147461.

Target: Cathepsin K (Homo sapiens)
Sequence (P43235 whole entry): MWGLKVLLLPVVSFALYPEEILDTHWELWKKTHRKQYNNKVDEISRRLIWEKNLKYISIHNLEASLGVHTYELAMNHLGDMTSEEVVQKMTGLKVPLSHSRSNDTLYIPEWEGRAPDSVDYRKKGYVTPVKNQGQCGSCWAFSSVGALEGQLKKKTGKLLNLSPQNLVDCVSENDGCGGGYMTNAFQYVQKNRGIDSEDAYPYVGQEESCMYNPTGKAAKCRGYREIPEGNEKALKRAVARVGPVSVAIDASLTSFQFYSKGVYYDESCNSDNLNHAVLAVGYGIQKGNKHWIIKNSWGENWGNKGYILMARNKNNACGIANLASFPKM
Experiment: Inhibitory concentration against recombinant human cathepsin K determined in a fluorescence assay using 10 uM Cbz-Phe-Arg-AMC as substrate
Measured pIC50 by item
Recall that pIC50 is obtained by taking minus log10 of the concentration measured in molar.

Examples with answers:
{"chemSmiles": "CCCC[C@@H](C=O)NC(=O)OC(CC)(CC)Cc1ccccc1", "measuredOn": "Cathepsin K (Homo sapiens)", "pIC50": 8.68}
{"chemSmiles": "CCCC[C@@H](C=O)NC(=O)O[C@H](Cc1ccccc1)CC(C)C", "measuredOn": "Cathepsin K (Homo sapiens)", "pIC50": 8.19}
{"chemSmiles": "CCCC[C@@H](C=O)NC(=O)OC(C)(C)Cc1cccc(OC)c1", "measuredOn": "Cathepsin K (Homo sapiens)", "pIC50": 8.27}

Reported pIC50 of CCCC[C@@H](C=O)NC(=O)OC1(Cc2ccccc2)CCC1 : 8.62

* * *

Target: Cathepsin K (Homo sapiens, UniProt P43235)
Test: Inhibitory concentration against recombinant human cathepsin K determined in a fluorescence assay using 10 uM Cbz-Phe-Arg-AMC as substrate
In plain terms, low IC50, meaning strictly below 2 nM, gives MET, and everything else gives NOT MET.

Reference set (4 entries):
{"chemSmiles": "CCCC[C@@H](C=O)NC(=O)OC(C(C)C)C(C)C", "classAssignment": "MET"}
{"chemSmiles": "CCCC[C@@H](C=O)NC(=O)O[C@@H](CCC)Cc1ccccc1", "classAssignment": "MET"}
{"chemSmiles": "CCCC[C@@H](C=O)NC(=O)OC(C)(C(C)C)C(C)C", "classAssignment": "NOT MET"}
{"chemSmiles": "CCCC[C@@H](C=O)NC(=O)OC(CC)CC", "classAssignment": "NOT MET"}

Now consider the entry below.
**Q:** Hi there! Is IC50 for CCCC[C@@H](C=O)NC(=O)OC(C)(C)Cc1ccccc1Cl below 2 nM, do you know?
**A:** NOT MET

* * *

Biological target: Cathepsin B (Homo sapiens, UniProt P07858)
Test: Inhibitory concentration against recombinant human cathepsin B was determined in a fluorescence assay using 10 uM Cbz-Phe-Arg-AMC as substrate
propertyLabel: IC50 (nM)
// units = nM; emit number, no label

Examples with answers:
{"chemSmiles": "CCCC[C@@H](C=O)NC(=O)OC1(Cc2ccccc2)CCC1", "IC50 / nM": 3400}
{"chemSmiles": "CCCC[C@@H](C=O)NC(=O)O[C@@H](C)CC1CCCCC1", "IC50 / nM": 400}
{"chemSmiles": "CCCC[C@@H](C=O)NC(=O)OC1(Cc2ccccc2)CCCC1", "IC50 / nM": 810}
{"chemSmiles": "CCCC[C@@H](C=O)NC(=O)OC1(Cc2ccccc2)CCCCC1", "IC50 / nM": 12000}
{"chemSmiles": "CCCC[C@@H](C=O)NC(=O)O[C@@H](CC)Cc1ccccc1", "IC50 / nM": 72}

Reported IC50 of CCCC[C@@H](C=O)NC(=O)OC(CC)(CC)Cc1ccccc1 : 2200

Reported IC50 of CCCC[C@@H](C=O)NC(=O)O[C@@H](C)Cc1ccccc1 : 460

* * *

Measured pIC50 by item
Biological target: Procathepsin L (Homo sapiens)
Sequence (P07711 whole entry): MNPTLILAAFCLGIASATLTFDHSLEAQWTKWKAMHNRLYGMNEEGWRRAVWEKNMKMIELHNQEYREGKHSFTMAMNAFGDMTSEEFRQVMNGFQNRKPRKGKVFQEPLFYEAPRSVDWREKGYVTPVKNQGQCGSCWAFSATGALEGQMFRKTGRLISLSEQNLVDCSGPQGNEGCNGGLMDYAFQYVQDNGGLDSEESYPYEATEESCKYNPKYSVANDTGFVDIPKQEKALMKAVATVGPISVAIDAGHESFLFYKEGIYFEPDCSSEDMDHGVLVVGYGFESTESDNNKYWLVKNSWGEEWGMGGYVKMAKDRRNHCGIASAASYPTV
Assay: Inhibitory concentration against recombinant human cathepsin L was determined in a fluorescence assay using 5 uM Cbz-Phe-Arg-AMC as substrate
Recall that pIC50 is obtained by taking minus log10 of the concentration measured in molar.

{"chemSmiles": "CCCC[C@@H](C=O)NC(=O)OC(CC)(CC)Cc1ccccc1", "reportedResult": 6.96}
{"chemSmiles": "CCCC[C@@H](C=O)NC(=O)O[C@@H](C)CC1CCCCC1", "reportedResult": 6.57}
{"chemSmiles": "CCCC[C@@H](C=O)NC(=O)O[C@@H](CC)Cc1ccccc1", "reportedResult": 7.82}
{"chemSmiles": "CCCC[C@@H](C=O)NC(=O)O[C@@H](C)Cc1ccccc1", "reportedResult": 6.13}

Reported pIC50 of CCCC[C@@H](C=O)NC(=O)OC1(Cc2ccccc2)CCCC1 : 5.70

Reported pIC50 of CCCC[C@@H](C=O)NC(=O)OC1(Cc2ccccc2)CCC1 : 5.92

Reported pIC50 of CCCC[C@@H](C=O)NC(=O)OC1(Cc2ccccc2)CCCCC1 : 5.07

* * *

Measured IC50 by item
Molecular target: Cathepsin K (Homo sapiens, UniProt P43235)
Experiment: Inhibitory concentration against recombinant human cathepsin K determined in a fluorescence assay using 10 uM Cbz-Phe-Arg-AMC as substrate
// units = nM; emit number, no label

Examples with answers:
{"chemSmiles": "CCCC[C@@H](C=O)NC(=O)OCCc1ccccc1", "propertyLabel": "IC50", "reportedResult": 270}
{"chemSmiles": "CCCC[C@@H](C=O)NC(=O)O[C@@H](C)Cc1ccccc1", "propertyLabel": "IC50", "reportedResult": 1.8}
{"chemSmiles": "CCCC[C@@H](C=O)NC(=O)OC(C)(C)Cc1ccc(OC)cc1", "propertyLabel": "IC50", "reportedResult": 2.9}
{"chemSmiles": "CCCC[C@@H](C=O)NC(=O)O[C@@H](C)CC1CCCCC1", "propertyLabel": "IC50", "reportedResult": 2.7}

Item CCCC[C@@H](C=O)NC(=O)OC(Cc1ccccc1)Cc1ccccc1 ; assay system Cathepsin K (Homo sapiens, UniProt P43235); IC50 reported as 71

Item CCCC[C@@H](C=O)NC(=O)O[C@H](C)Cc1ccccc1 ; assay system Cathepsin K (Homo sapiens, UniProt P43235); IC50 reported as 100

Item CCCC[C@@H](C=O)NC(=O)OC(C)(C)Cc1ccc(Cl)cc1 ; assay system Cathepsin K (Homo sapiens, UniProt P43235); IC50 reported as 4.6

Item CCCC[C@@H](C=O)NC(=O)OC(C)(C)Cc1cccc(-c2ccsc2)c1 ; assay system Cathepsin K (Homo sapiens, UniProt P43235); IC50 reported as 7.6

Item CCCC[C@@H](C=O)NC(=O)OC(CCC)CCC ; assay system Cathepsin K (Homo sapiens, UniProt P43235); IC50 reported as 0.87

Item CCCC[C@@H](C=O)NC(=O)OCCCc1ccccc1 ; assay system Cathepsin K (Homo sapiens, UniProt P43235); IC50 reported as 600

Item CCCC[C@@H](C=O)NC(=O)OCc1ccccc1 ; assay system Cathepsin K (Homo sapiens, UniProt P43235); IC50 reported as 540

Item CCCC[C@@H](C=O)NC(=O)O[C@@H](CC)Cc1ccccc1 ; assay system Cathepsin K (Homo sapiens, UniProt P43235); IC50 reported as 0.13

Item CCCC[C@@H](C=O)NC(=O)OC(CC(C)C)CC(C)C ; assay system Cathepsin K (Homo sapiens, UniProt P43235); IC50 reported as 1.1

Item CCCC[C@@H](C=O)NC(=O)OC(C)(C)Cc1ccccc1 ; assay system Cathepsin K (Homo sapiens, UniProt P43235); IC50 reported as 12
